Known pIC50 of a selection of compounds
- Test system: hepatocellular carcinoma cell line (HepG2)
- Protocol notes: MTT-based cytotoxicity assay, HepG2
- Format: cell-based, human
- Condition context: Homo sapiens, HepG2, 48 h, read-out: Anticancer (IC50) HepG2
pIC50: −log10 of the molar value.
Parameter: pIC50

CC(C)(C)Nc1c(-c2ccccc2N)nc2ccccn12 [12f] = 4.49
Nc1ccc(-c2nc3ccccn3c2NC2CCCCC2)cc1 [12l] = 4.60
CC(C)(C)Nc1c(-c2ccc([N+](=O)[O-])cc2)nc2ccccn12 [12a] = 4.52
CN(C)c1ccc(-c2nc3ccccn3c2NC(C)(C)C)cc1 [12i] = 4.72
O=[N+]([O-])c1ccc(-c2nc3ccccn3c2NC2CCCCC2)cc1 [12k] = 4.40
CN(C)c1ccc(-c2nc3cnccn3c2NC(C)(C)C)cc1 [10h] = 4.47
Nc1ccccc1-c1nc2cnccn2c1N [10g] = 4.60
CC(C)(C)Nc1c(-c2ccccc2N)nc2cnccn12 [10f] = 4.70
CN(C)c1ccc(-c2nc3cnccn3c2N)cc1 [10i] = 4.59
Nc1ccccc1-c1nc2cnccn2c1NC1CCCCC1 [10m] = 4.70
O=[N+]([O-])c1ccc(-c2nc3cnccn3c2NC2CCCCC2)cc1 [10j] = 4.40
CC(C)(C)Nc1c(-c2ccc(N)cc2)nc2ccccn12 [12b] = 4.89
CC(C)(C)Nc1c(-c2ccccc2[N+](=O)[O-])nc2cnccn12 [10e] = 4.40
CC(C)(C)Nc1c(-c2ccc([N+](=O)[O-])cc2)nc2cnccn12 [10a] = 4.40

###

- System: human skin cancer cell line (A375)
- Protocol notes: MTT-based cytotoxicity assay, A375
- Format: cell-based
- Condition context: Homo sapiens, A-375, 48 h, read-out: Anticancer (IC50) A375, MTT, 48 hours, average of three independent experiments
Note to self: use 1 (yes) only for IC50 readings below 30 µM; a reading exactly at 30 µM still gets 0 (no).

O=[N+]([O-])c1ccc(-c2nc3cnccn3c2NC2CCCCC2)cc1 [10j] = 1 (yes)
CC(C)(C)Nc1c(-c2ccccc2[N+](=O)[O-])nc2cnccn12 [10e] = 0 (no)
O=[N+]([O-])c1ccc(-c2nc3ccccn3c2NC2CCCCC2)cc1 [12k] = 0 (no)
Nc1ccc(-c2nc3cnccn3c2N)cc1 [10d] = 1 (yes)
CN(C)c1ccc(-c2nc3cnccn3c2N)cc1 [10i] = 1 (yes)
CN(C)c1ccc(-c2nc3ccccn3c2NC(C)(C)C)cc1 [12i] = 1 (yes)
CC(C)(C)Nc1c(-c2ccccc2N)nc2cnccn12 [10f] = 1 (yes)
CC(C)(C)Nc1c(-c2ccc(N)cc2)nc2ccccn12 [12b] = 1 (yes)
Nc1ccccc1-c1nc2ccccn2c1N [12h] = 0 (no)
CN(C)c1ccc(-c2nc3ccccn3c2N)cc1 [12j] = 1 (yes)
Nc1c(-c2ccccc2[N+](=O)[O-])nc2ccccn12 [12g] = 0 (no)
CC(C)(C)Nc1c(-c2ccc(N)cc2)nc2cnccn12 [10b] = 1 (yes)
COc1cccc2c1C(=O)c1c(O)c3c(c(O)c1C2=O)C[C@@](O)(C(=O)CO)C[C@@H]3O[C@H]1C[C@H](N)[C@H](O)[C@H](C)O1 [Doxorubicin, reference compound] = 1 (yes)
Nc1ccccc1-c1nc2cnccn2c1NC1CCCCC1 [10m] = 1 (yes)
Nc1c(-c2ccc([N+](=O)[O-])cc2)nc2cnccn12 [10c] = 1 (yes)
CC(C)(C)Nc1c(-c2ccc([N+](=O)[O-])cc2)nc2ccccn12 [12a] = 0 (no)
Nc1ccccc1-c1nc2cnccn2c1N [10g] = 1 (yes)
CC(C)(C)Nc1c(-c2ccccc2N)nc2ccccn12 [12f] = 1 (yes)
Nc1c(-c2ccc([N+](=O)[O-])cc2)nc2ccccn12 [12c] = 0 (no)
CC(C)(C)Nc1c(-c2ccccc2[N+](=O)[O-])nc2ccccn12 [12e] = 0 (no)

###

- System: hepatocellular carcinoma cell line (HepG2)
- Protocol notes: MTT-based cytotoxicity assay, HepG2
- Type: cell-based, human
- Condition context: Homo sapiens, HepG2, 48 h, read-out: Anticancer (IC50) HepG2
Parameter: IC50 (µM)

Nc1ccccc1-c1nc2ccccn2c1N [12h] = 54
CC(C)(C)Nc1c(-c2ccc(N)cc2)nc2cnccn12 [10b] = 18
Nc1c(-c2ccc([N+](=O)[O-])cc2)nc2ccccn12 [12c] = 48
CN(C)c1ccc(-c2nc3ccccn3c2N)cc1 [12j] = 35
COc1cccc2c1C(=O)c1c(O)c3c(c(O)c1C2=O)C[C@@](O)(C(=O)CO)C[C@@H]3O[C@H]1C[C@H](N)[C@H](O)[C@H](C)O1 [Doxorubicin, reference compound] = 1.5
CC(C)(C)Nc1c(-c2ccccc2[N+](=O)[O-])nc2ccccn12 [12e] = 62
Nc1ccc(-c2nc3ccccn3c2N)cc1 [12d] = 35
Nc1ccc(-c2nc3cnccn3c2N)cc1 [10d] = 34
Nc1ccc(-c2nc3cnccn3c2NC2CCCCC2)cc1 [10k] = 28
Nc1c(-c2ccc([N+](=O)[O-])cc2)nc2cnccn12 [10c] = 30

###

- Test system: breast cancer cell line (MCF-7)
- Protocol notes: MTT-based cytotoxicity assay, MCF-7
- Type: cell-based, human
- Condition context: Homo sapiens, MCF7, 48 h, read-out: Anticancer (IC50) MCF-7
pIC50: −log10 of the molar value.
Parameter: pIC50

CC(C)(C)Nc1c(-c2ccc(N)cc2)nc2ccccn12 [12b] = 4.96
CN(C)c1ccc(-c2nc3ccccn3c2NC(C)(C)C)cc1 [12i] = 4.77
Nc1ccc(-c2nc3ccccn3c2NC2CCCCC2)cc1 [12l] = 4.46
Nc1ccccc1-c1nc2cnccn2c1N [10g] = 4.52
Nc1c(-c2ccc([N+](=O)[O-])cc2)nc2cnccn12 [10c] = 4.40
CN(C)c1ccc(-c2nc3cnccn3c2N)cc1 [10i] = 4.77
Nc1ccccc1-c1nc2cnccn2c1NC1CCCCC1 [10m] = 4.36
Nc1ccccc1-c1nc2ccccn2c1N [12h] = 4.21

###

pIC50 by entry:
- Tested on: breast cancer cell line (MCF-7)
- Protocol notes: MTT-based cytotoxicity assay, MCF-7
- Format: cell-based, human
- Condition context: Homo sapiens, MCF7, 48 h, read-out: Anticancer (IC50) MCF-7
pIC50: −log10 of the molar value.
Parameter: pIC50

CN(C)c1ccc(-c2nc3ccccn3c2N)cc1 [12j] = 4.52
Nc1ccc(-c2nc3ccccn3c2N)cc1 [12d] = 4.30
O=[N+]([O-])c1ccc(-c2nc3ccccn3c2NC2CCCCC2)cc1 [12k] = 4.28
Nc1ccc(-c2nc3cnccn3c2NC2CCCCC2)cc1 [10k] = 4.19
CC(C)(C)Nc1c(-c2ccccc2N)nc2ccccn12 [12f] = 4.62
COc1cccc2c1C(=O)c1c(O)c3c(c(O)c1C2=O)C[C@@](O)(C(=O)CO)C[C@@H]3O[C@H]1C[C@H](N)[C@H](O)[C@H](C)O1 [Doxorubicin, reference compound] = 6.07
CC(C)(C)Nc1c(-c2ccc([N+](=O)[O-])cc2)nc2ccccn12 [12a] = 4.26
CC(C)(C)Nc1c(-c2ccccc2[N+](=O)[O-])nc2cnccn12 [10e] = 4.00
Nc1ccc(-c2nc3cnccn3c2N)cc1 [10d] = 4.52
O=[N+]([O-])c1ccc(-c2nc3cnccn3c2NC2CCCCC2)cc1 [10j] = 4.62
CC(C)(C)Nc1c(-c2ccccc2N)nc2cnccn12 [10f] = 4.59
CC(C)(C)Nc1c(-c2ccc(N)cc2)nc2cnccn12 [10b] = 4.68
CN(C)c1ccc(-c2nc3cnccn3c2NC(C)(C)C)cc1 [10h] = 4.30

###

- Tested on: human skin cancer cell line (A375)
- Protocol notes: MTT-based cytotoxicity assay, A375
- Type: cell-based
- Condition context: Homo sapiens, A-375, 48 h, read-out: Anticancer (IC50) A375, MTT, 48 hours, average of three independent experiments
// values below are reported IC50
Parameter: IC50 (µM)

CC(C)(C)Nc1c(-c2ccc([N+](=O)[O-])cc2)nc2cnccn12 [10a] = 36
CN(C)c1ccc(-c2nc3cnccn3c2NC(C)(C)C)cc1 [10h] = 30
Nc1ccc(-c2nc3ccccn3c2N)cc1 [12d] = 38

###

- Test system: breast cancer cell line (MCF-7)
- Protocol notes: MTT-based cytotoxicity assay, MCF-7
- Format: cell-based, human
- Condition context: Homo sapiens, MCF7, 48 h, read-out: Anticancer (IC50) MCF-7
pIC50: −log10 of the molar value.
Parameter: pIC50

CC(C)(C)Nc1c(-c2ccc([N+](=O)[O-])cc2)nc2cnccn12 [10a] = < 4.00
CC(C)(C)Nc1c(-c2ccccc2[N+](=O)[O-])nc2ccccn12 [12e] = < 4.00
Nc1c(-c2ccc([N+](=O)[O-])cc2)nc2ccccn12 [12c] = < 4.00
